Tested on: Enterococcus faecalis 27101
Test: MIC, agar serial dilution, Enterococcus faecalis 27101
Type: cell-based
Conditions: Iso-Sensitest agar, 37° C., about 20 hours
value-type: MIC (µg/mL)

> print(dat)
                                   molecule  readout.unit  numeric.readout
1  NCC12CN(c3c(F)cc4c(=O)c(C(=O)O)cn(C5CC5)c4c3Cl)CC1CCO2.O=C(O)C(F)(F)F (stereo not shown)         µg/mL             0.03

I: Cl.NCC12CN(c3c(F)cc4c(=O)c(C(=O)O)cn(C5CC5)c4c3F)CC1CCO2 (stereo not shown)
II: Cl.O=C(O)c1cn(C2CC2)c2c(F)c(N3C[C@@H]4NCCO[C@@H]4C3)c(F)cc2c1=O (relative stereo)
III: Cl.O=C(O)c1cn(C2CC2)c2c(Cl)c(N3C[C@@H]4NCCO[C@@H]4C3)c(F)cc2c1=O (relative stereo)
Ordering criterion: MIC; begin with the maximum. Reply with the item labels sorted in the order that was asked for.
II, III, I
(II: 0.25 µg/mL, III: 0.125 µg/mL, I: 0.06 µg/mL)

---

MIC, Enterobacter aerog. ICB 5240: measured values
value-type: MIC (µg/mL)

> print(dat)
                                   compound  numeric.readout
1  NCC12CN(c3c(F)cc4c(=O)c(C(=O)O)cn(C5CC5)c4c3Cl)CC1CCO2.O=C(O)C(F)(F)F (stereo not shown)                8
2  Cl.O=C(O)c1cn(C2CC2)c2c(F)c(N3C[C@@H]4NCCO[C@@H]4C3)c(F)cc2c1=O (relative stereo)               32

P: Cl.NCC12CN(c3c(F)cc4c(=O)c(C(=O)O)cn(C5CC5)c4c3F)CC1CCO2 (stereo not shown)
Q: Cl.O=C(O)c1cn(C2CC2)c2c(Cl)c(N3C[C@@H]4NCCO[C@@H]4C3)c(F)cc2c1=O (relative stereo)
// pick larger MIC from pair: P vs Q Reply briefly: the label of your chosen item.
Q

---

For reference, MIC measured on Morganella morganii 932:
value-type: MIC (µg/mL)

> print(dat)
                                   compound  value.type  readout.unit  numeric.readout
1  Cl.O=C(O)c1cn(C2CC2)c2c(F)c(N3C[C@@H]4NCCO[C@@H]4C3)c(F)cc2c1=O (relative stereo)         MIC         µg/mL            0.125
2  NCC12CN(c3c(F)cc4c(=O)c(C(=O)O)cn(C5CC5)c4c3Cl)CC1CCO2.O=C(O)C(F)(F)F (stereo not shown)         MIC         µg/mL             0.03

P: Cl.NCC12CN(c3c(F)cc4c(=O)c(C(=O)O)cn(C5CC5)c4c3F)CC1CCO2 (stereo not shown)
Q: Cl.O=C(O)c1cn(C2CC2)c2c(Cl)c(N3C[C@@H]4NCCO[C@@H]4C3)c(F)cc2c1=O (relative stereo)
When P and Q are compared, which has the higher number for MIC? Indicate your choice by writing its label.
Q
(Q: 0.06 µg/mL, P: 0.03 µg/mL)

---

Reported MIC values, Providencia sp. 12012.
value-type: MIC (µg/mL)

> print(dat)
                                   compound  value.type  readout.unit  numeric.readout
1  Cl.O=C(O)c1cn(C2CC2)c2c(Cl)c(N3C[C@@H]4NCCO[C@@H]4C3)c(F)cc2c1=O (relative stereo)         MIC         µg/mL             0.06

I: Cl.NCC12CN(c3c(F)cc4c(=O)c(C(=O)O)cn(C5CC5)c4c3F)CC1CCO2 (stereo not shown)
II: Cl.O=C(O)c1cn(C2CC2)c2c(F)c(N3C[C@@H]4NCCO[C@@H]4C3)c(F)cc2c1=O (relative stereo)
III: NCC12CN(c3c(F)cc4c(=O)c(C(=O)O)cn(C5CC5)c4c3Cl)CC1CCO2.O=C(O)C(F)(F)F (stereo not shown)
Order the items by recorded MIC; the first position goes to the largest value. I'd appreciate it if you listed the labels in the requested order.
II, I, III
(II: 0.125 µg/mL, I: 0.06 µg/mL, III: 0.03 µg/mL)
